Cited source: the array DNA melting data of Ke et al. (doi:10.1101/2024.01.08.574731)

Test: melting temperature; fluorescence melt of hairpins on a sequencing array, two-state fit, raised by 9.35 °C to match UV melts
Details: sodium 0.088 M

sequence-content | unit-spec | Tm
GTCGACCCGAAAGGGGAC (((..(((....)))))) | °C | 40
GAGTGCGAAAGCACCTC ((((((....))).))) | °C | 54.8
GGTCTCACGAAAGTGACC (((..(((....)))))) | °C | 37.9
AGTAGGAAACTACT (((((....))))) | °C | 33.2
GCCATCGAAAGATCTGGC ((((((....)))..))) | °C | 36.1
GGCTTCGGAAACGAGGCC (((.(((....))).))) | °C | 58.8
GCATTCGGAAACGAACGC ((.((((....)))).)) | °C | 46.7
GCGTTACCACGC ((((....)))) | °C | 52.8
GCCAACGGAAACGTTGAC (.(((((....))))).) | °C | 46.5
GGCTCCTCGAAAGAGGCC (((..(((....)))))) | °C | 39.5
GATCTAGGCTAGATC ((((((...)))))) | °C | 45.5
GATTGTGAAAACAATC ((((((....)))))) | °C | 51.4
GTGAGGGGAAACCCTCAC (((((((....))))))) | °C | 67.7
GTGTGGGGAAACCCGCAC (((.(((....))).))) | °C | 59.7
GCACCAGGAAACCGGTGC (((((.(....).))))) | °C | 58.3
GACCCAGGAAACTAGGTC ((((.((....)).)))) | °C | 36
GGTATGAAAATACC (((((....))))) | °C | 47.5
GTATCAGGAAACCGATAC (((((.(....).))))) | °C | 38.1
GTTGGCGGAAACGCTAGC (.(.(((....))).).) | °C | 34.5
GCGGGGCGAAAGCTCTGC ((.(.((....)).).)) | °C | 61.9
GCGTTGGGAAACCAATGC ((.((((....)))).)) | °C | 54.3
GGCGCCGAAAGGCTGCC ((((((....))).))) | °C | 67.1
GATCTGTATACAGATC ((((((....)))))) | °C | 54.3
GCCTCCGGAAACGGAAGC ((.((((....)))).)) | °C | 45.9
GCGGAAGGAAACTTCTGC ((.((((....)))).)) | °C | 51.4
